# STUDY_SYSTEM: T1, soluble human recombinant CD4 expressed in baculovirus (human, UniProt P01730 26-396, limits assumed)
# T1 construct: Coated on plates for the ELISA and covalently immobilised on the sensor for BIAcore; Only called soluble; also called soluble CD4; CD4 expressed in the baculovirus
# PROTOCOL_DESCRIPTION: SPR (BIAcore), CD4 immobilised, Exp. 1
VALUE_KIND: koff
Write the quantity with the unit trailing the number.

| BINDER | RESULT |
| --- | --- |
| control mutant Fab V61-H of the 13B8.2 antibody (Fab, V domains shown, Chimeric Fab with human CH1-γ1 and Cκ; baculovirus/Sf9; Control position, not a Spot contributor residue; also called V61-Hcontrol) VH: QVQLKQSGPGLVQPSQSLSITCTVSGFSLTTFGVHWVRQSPGKGLEWLGVIWRSGITDYNAPFMSRLSITKDNSKSQVFFKLNSLQPDDTAIYYCAKNDPGTGFAYWGQGTLVTVSA VL: DIQMTQSPASLSASVGETVTFTCRASENIYSYLAWYQQKQGKSPQLLVHDAKTLAEGVPSRFSGGGSGTQFSLKINTLQPEDFGTYYCQHHYGNPPTFGGGTKLEIK | 0.000172 s⁻¹ |
| mutant Fab Y36-L of the 13B8.2 antibody (Fab, V domains shown, Chimeric Fab with human CH1-γ1 and Cκ; baculovirus/Sf9) VH: QVQLKQSGPGLVQPSQSLSITCTVSGFSLTTFGVHWVRQSPGKGLEWLGVIWRSGITDYNVPFMSRLSITKDNSKSQVFFKLNSLQPDDTAIYYCAKNDPGTGFAYWGQGTLVTVSA VL: DIQMTQSPASLSASVGETVTFTCRASENIYSYLAWAQQKQGKSPQLLVHDAKTLAEGVPSRFSGGGSGTQFSLKINTLQPEDFGTYYCQHHYGNPPTFGGGTKLEIK | 0.000651 s⁻¹ |
| wild recombinant chimeric Fab fragment of the 13B8.2 anti-CD4 antibody (Fab, V domains shown, Chimeric Fab: murine V domains fused to human CH1-γ1 (Fdγ1) and human Cκ, expressed in baculovirus/Sf9 cells, purified on protein G; also called Fabwild 13B8.2; wild Fab) VH: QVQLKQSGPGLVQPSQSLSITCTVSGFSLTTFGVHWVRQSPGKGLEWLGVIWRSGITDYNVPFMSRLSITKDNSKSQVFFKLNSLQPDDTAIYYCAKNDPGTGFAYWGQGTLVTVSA VL: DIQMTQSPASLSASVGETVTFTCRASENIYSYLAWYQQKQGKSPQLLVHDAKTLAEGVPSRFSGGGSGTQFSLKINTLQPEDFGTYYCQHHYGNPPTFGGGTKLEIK | 0.000108 s⁻¹ |

Data request, read-out koff, for mutant Fab F32-H of the 13B8.2 antibody (Fab, V domains shown, Chimeric Fab with human CH1-γ1 and Cκ; baculovirus/Sf9; also called F32 mutant Fab) VH: QVQLKQSGPGLVQPSQSLSITCTVSGFSLTTAGVHWVRQSPGKGLEWLGVIWRSGITDYNVPFMSRLSITKDNSKSQVFFKLNSLQPDDTAIYYCAKNDPGTGFAYWGQGTLVTVSA VL: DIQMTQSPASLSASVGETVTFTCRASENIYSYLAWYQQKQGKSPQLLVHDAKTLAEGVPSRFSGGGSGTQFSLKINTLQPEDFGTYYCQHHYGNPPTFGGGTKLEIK
0.000248 s⁻¹

Ref: patent US20050226874A1
